# Target: isolated recombinant JAK1 kinase domain (Homo sapiens)
# Construct: The activity of the isolated recombinant JAK1 and JAK2 kinase domain was measured
# Sequence (P23458 875-1153): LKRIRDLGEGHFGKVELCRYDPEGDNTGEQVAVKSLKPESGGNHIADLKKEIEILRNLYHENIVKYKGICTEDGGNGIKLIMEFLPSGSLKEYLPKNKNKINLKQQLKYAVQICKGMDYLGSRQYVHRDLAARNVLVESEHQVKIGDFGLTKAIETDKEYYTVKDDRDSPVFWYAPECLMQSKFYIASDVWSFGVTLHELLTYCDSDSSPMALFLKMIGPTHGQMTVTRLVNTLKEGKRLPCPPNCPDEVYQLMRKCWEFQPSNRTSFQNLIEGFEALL
# Procedure details: JAK1 enzyme assay (Caliper LabChip, peptide phosphorylation)
# Measurement conditions: 1.5 nM JAK1, 25 μM ATP, 22° C., 30 minutes; Morrison tight binding model
Quick reference: pKi of the listed items.
Please report pKi as the negative decimal logarithm of the molar concentration, giving only the number.

{"Compound structure string": "O=C(Nc1c[nH]nc1-c1cc(SC2CC2)ccc1OC(F)F)c1cnc2cccnn12", "pKi": 9.54}
{"Compound structure string": "Cn1cc(NC(=O)c2cnc3cccnn23)c(-c2cc(Cl)ccc2OC(F)F)n1", "pKi": 9.55}
{"Compound structure string": "C#Cc1ccc2ncc(C(=O)Nc3c[nH]nc3-c3cc(Cl)ccc3OC(F)F)n2n1", "pKi": 9.54}

# return pKi for `CC(C)Sc1ccc(OC(F)F)c(-c2n[nH]cc2NC(=O)c2cnc3cccnn23)c1` , test system: isolated recombinant JAK1 kinase domain (Homo sapiens) 9.39

Answer briefly: pKi recorded on isolated recombinant JAK1 kinase domain (Homo sapiens) for `O=C(Nc1cn(CC(=O)N2CCC(N3CCOCC3)CC2)nc1-c1cc(Cl)ccc1OC(F)F)c1cnc2cccnn12` 9.44

Fill in: pKi on isolated recombinant JAK1 kinase domain (Homo sapiens), entry `CSc1ccc(OC(F)F)c(-c2n[nH]cc2NC(=O)c2cnc3cccnn23)c1` 9.96

GET pKi where system = isolated recombinant JAK1 kinase domain (Homo sapiens) and item = `CSc1ccc(OC(F)F)c(-c2nn(CC(=O)N3CCC(CN4CCN(CC(=O)N(C)C)CC4)CC3)cc2NC(=O)c2cnc3cccnn23)c1` 9.29

Would you please give the reported pKi of `CN(C1CCN(C(=O)Cn2cc(NC(=O)c3cnc4cccnn34)c(-c3cc(Cl)ccc3OC(F)F)n2)CC1)C1COC1` with isolated recombinant JAK1 kinase domain (Homo sapiens)? 9.48

Answer briefly: pKi recorded on isolated recombinant JAK1 kinase domain (Homo sapiens) for `O=C(Nc1cn(CC(=O)N2CCN(CCN3CCOCC3)CC2)nc1-c1cc(Cl)ccc1OC(F)F)c1cnc2cccnn12` 9.19

Attribution: patent US11795170B2
